Assay: binders of probe aFGF10 on microarray, primary screen, stem cell growth factor project, biochemical, small-molecule microarray, fluorescence 635/667 (AID 1071);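 also: score merges 667 nm spot intensity and signal to noise from triplicate slides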
Conditions: higher = more signal
The reader will find reported composite z-score values listed item by item below.
metric: composite z-score

- compound_structure: "COc1ccc(CCN2C(=O)[C@@]3(Cc4ccccc42)c2ccccc2C(=O)N(Cc2ccccc2OC)[C@H]3c2ccc(CO)cc2)cc1"
  observed_measurement: -0.0162
- compound_structure: "COc1ccc(CN(C2=CC[C@@]3(C(N)=O)C(=O)C(Cl)=C(Cl)C(=O)[C@@]3(C#N)C2)S(=O)(=O)c2ccc(Br)cc2)cc1"
  observed_measurement: 0.497
- compound_structure: "CN(C)C(=O)[C@]1(CCS(=O)(=O)c2ccccc2)N=C(c2ccc(OCCCO)cc2)O[C@@H]1c1ccccc1N=[N+]=[N-]"
  observed_measurement: 1.16
- compound_structure: "C=C(/C(=C/C[C@H](OC(C)=O)c1ccccc1OCCO)c1cc(C(=O)OC)ccc1OC)C(C)C"
  observed_measurement: 0.826
- compound_structure: "CCCCCCc1nc(C2CC2)cc2c1[Si](C(C)C)(C(C)C)O[C@H]2c1ccccc1"
  observed_measurement: 0.698
- compound_structure: "COc1cc2c(cc1OC)CN(C(=O)[C@@H]1[C@H]3C(=O)O[C@H](c4ccccc4)[C@H](c4ccccc4)N3[C@H](c3ccc(OCCO)cc3)[C@@]13C(=O)Nc1ccccc13)CC2"
  observed_measurement: 1.01
- compound_structure: "C=CC[C@]1(C(=O)NCCN2CCOCC2)N=C(c2ccc(OCCCO)cc2)O[C@H]1c1ccccc1CN=[N+]=[N-]"
  observed_measurement: 0.333
- compound_structure: "Cc1ccc(S[C@]2(C(=O)NCC(F)(F)F)CC(=O)N(Cc3ccccc3)[C@@H]2c2ccc(CO)cc2I)cc1"
  observed_measurement: 0.284
- compound_structure: "CN(C)CCCNC(=O)[C@@]1(c2ccc([N+](=O)[O-])cc2)CC(=O)N(CC23CC4CC(CC(C4)C2)C3)[C@@H]1c1ccc(CO)cc1I"
  observed_measurement: 0.272

====

Biological target: Neurogenic locus notch homolog protein 3 (Homo sapiens)
Assay: NOTCH3 binders on small-molecule microarray, primary screen, biochemical, 635/667 nm fluorescence (AID 1096)
Details: NOTCH3 binding, 635 nm fluorescence, higher = more signal
Cut-off 0.5 on composite z-score, inclusive. At or above means 1.0; below means 0.0.

- molecule: "CCOc1cc(C(O)C2C=CC3C(=O)N(c4ccccc4)C(=O)C3N2Nc2ccc(C#N)cc2)ccc1O (stereo not given)"
  class_name: 0.0
- molecule: "CCOC(=O)C[C@H]1[C@H](OC(=O)c2cc3ccccc3oc2=O)[C@@H](NC(=O)Cc2ccc(OC)cc2)c2cc(OCCCO)ccc2N1C(=O)c1ccc2ccccc2n1"
  class_name: 1.0
- molecule: "COc1ccc([Si](C)(C)[C@@H]2[C@@H](CC(=O)N(CCO)Cc3ccccc3)O[C@]3(C(=O)N(c4ccccc4)c4ccccc43)[C@H]2C)cc1"
  class_name: 1.0
- molecule: "Cc1ccc(S[C@]2(C(=O)O)CC(=O)N(C3Cc4ccccc4C3)[C@@H]2c2ccc(CO)cc2)cc1"
  class_name: 0.0
- molecule: "COC(=O)[C@@]1(Cc2ccc(OC)cc2)[C@@H]2C(=CC(=O)[C@H]2CC(=O)C(=O)N(C)C)CN1C(=O)c1ccccc1"
  class_name: 1.0
- molecule: "COc1ccc(CN(C2=CC[C@@]3(C(N)=O)C(=O)C(Cl)=C(Cl)C(=O)[C@@]3(C#N)C2)S(=O)(=O)c2ccc(Br)cc2)cc1"
  class_name: 0.0
- molecule: "C=CCNC(=O)[C@H]1[C@@H]2C(=O)O[C@@H](c3ccccc3)[C@@H](c3ccccc3)N2[C@@H](c2ccc(O)cc2)[C@]12C(=O)Nc1ccc(C#CC3(O)CCCCCC3)cc12"
  class_name: 0.0
- molecule: "CN1C(=O)C2C=CC(C(O)c3cccc4ccccc34)N(N3CCCCC3)C2C1=O (stereo not given)"
  class_name: 1.0
- molecule: "COC(=O)C1=CC(CCCO)=CC(C2CC2)N(C)C=C1C(=O)OC (stereo not given)"
  class_name: 0.0

Sourced from PubChem BioAssay
